assay: Cellular toxicity, minimal toxic dose that inhibits all growth, MDCK; assay type: cell-based, Canine; settings: dog; Table 4; MDCK; read-out: Minimal Toxic Dose that Inhibits All Growth, MDCK
METRIC: MCC (µg/mL)
Number only, in µg/mL; omit the unit.

Enquiry: Please report the recorded MCC for NC(=O)c1ncn([C@@H]2O[C@H](CO)[C@@H](O)[C@H]2O)n1 [Ribavirin, ribavirin, reference compound] .
Return: 100

* * *

test: Cellular toxicity, minimal toxic dose that inhibits all growth, Vero; type: cell-based; conditions: monkey, vero cells
METRIC: MCC

Enquiry: Form field: reported MCC of `Cc1nc(=O)c(C#N)c(NCCc2cccnc2)[nH]1`
Return: > 100 µg/mL

Enquiry: Ok, now `Cc1nc(=O)c(Br)c(NCc2cncc(C#N)c2)[nH]1`
Return: > 50 µg/mL

* * *

experiment: Cellular toxicity, minimal toxic dose that inhibits all growth, A549; type: cell-based; settings: human, a549 cells; Table 4; A549; read-out: Minimal Toxic Dose that Inhibits All Growth, A549
Field: MCC. Provide a value for each of the compounds that follow.

Enquiry: Look up MCC: NC12CC3CC(CC(C3)C1)C2 [Amantadine, amantadine, reference compound]
Return: > 100 µg/mL

Enquiry: What about this compound? NC(=O)c1ncn([C@@H]2O[C@H](CO)[C@@H](O)[C@H]2O)n1 [Ribavirin, ribavirin, reference compound]
Return: 100 µg/mL

* * *

assay: Cellular toxicity, minimal toxic dose that inhibits all growth, Vero; type: cell-based; settings: monkey, vero cells; Table 4; Vero; read-out: Minimal Toxic Dose that Inhibits All Growth, Vero
METRIC: MCC
Quote the value and follow it with the unit of measurement.

Enquiry: Quick one: MCC of NC(=O)c1ncn([C@@H]2O[C@H](CO)[C@@H](O)[C@H]2O)n1 [Ribavirin, ribavirin, reference compound] ?
Return: 100 µg/mL

Enquiry: And NC12CC3CC(CC(C3)C1)C2 [Amantadine, amantadine, reference compound] ?
Return: 100 µg/mL
